system: CCRIS mutagenicity, Ames/micronucleus/aberration tests; assay: CCRIS mutagenicity studies; conditions: Test System: AMES SALMONELLA TYPHIMURIUM; Strain/Indicator: TA98; Metabolic Activation: NONE; Method: STANDARD PLATE
Calls of active or inactive are those of the source. The rule behind the calls is not given here.
Would you mind answering with one of these outcomes? label 1 (active), label 0 (inactive)

Per the assay record, what outcome was assigned to O=C1c2ccccc2-c2ccc3ccccc3c21 ?
label 0

Per the assay record, what outcome was assigned to CC(C)(C)NCC(O)COc1cccc2c1CCCC2=O (centres undefined) ?
label 0

Per the assay record, what outcome was assigned to CCCCOc1ccc2nc3cc(Cl)ccc3c(NCCCN(CC)CCCl)c2n1 ?
label 1

Per the assay record, what outcome was assigned to C[Si](C)(C)N[Si](C)(C)C ?
label 0

Per the assay record, what outcome was assigned to CC(C)(C)N(CCO)CCO ?
label 0

Per the assay record, what outcome was assigned to C1=c2ccccc2=C2Cc3ccccc3C3=C4OC4=C1C32 (centres undefined) ?
label 1

Per the assay record, what outcome was assigned to CCOP(=S)(OCC(C)C)SCCl (centres undefined) ?
label 0

Per the assay record, what outcome was assigned to CC(=O)OC1Cc2ccc3ccc4cccc5cc1c2c3c45 (centres undefined) ?
label 1

Per the assay record, what outcome was assigned to O=C(O)/C=C/c1ccccc1 ?
label 0

Per the assay record, what outcome was assigned to Nc1ncnc2c1ncn2Cc1ccccc1 ?
label 0

Per the assay record, what outcome was assigned to Cc1ccccc1Cl ?
label 0

Per the assay record, what outcome was assigned to CC(=O)c1ccc(S(=O)(=O)NC(=O)NC2CCCCC2)cc1 ?
label 0

Per the assay record, what outcome was assigned to O=C(/C=C/c1ccccc1)c1ccc(F)cc1 ?
label 0

Per the assay record, what outcome was assigned to COc1c2ccccc2[n+]([O-])c2occc12 ?
label 0
